Could you please report measured pIC50 for the items listed next?
- Test system: HEK293
- Protocol: Inhibitory concentration for the inhibition of intracellular [Ca2+] release in HEK cells by using FLIPR technology
- Format: functional, cell-based
- Setup Conditions: Homo sapiens
Reminder that pIC50 means the negative base-10 logarithm of the concentration expressed in mol/L.

## Input What value of pIC50 has been reported for the following compound? N#Cc1c(Cl)cccc1OC[C@H](O)CN1CCC[C@H]1C(O)c1cccc(F)c1 (stereo partly drawn)
## Output 5.64

## Input Moving on to "N#Cc1c(Cl)cccc1OC[C@H](O)CN1CCC[C@H]1Cc1ccccc1O"
## Output 7.00

## Input Next up: N#Cc1c(Cl)cccc1OC[C@H](O)CN1CCCC1Cc1ccccc1 (stereo partly drawn)
## Output 6.46

---

- Measurement Target: Voltage-gated inwardly rectifying potassium channel KCNH2 (Homo sapiens, UniProt Q12809)
- Sequence (Q12809 whole entry): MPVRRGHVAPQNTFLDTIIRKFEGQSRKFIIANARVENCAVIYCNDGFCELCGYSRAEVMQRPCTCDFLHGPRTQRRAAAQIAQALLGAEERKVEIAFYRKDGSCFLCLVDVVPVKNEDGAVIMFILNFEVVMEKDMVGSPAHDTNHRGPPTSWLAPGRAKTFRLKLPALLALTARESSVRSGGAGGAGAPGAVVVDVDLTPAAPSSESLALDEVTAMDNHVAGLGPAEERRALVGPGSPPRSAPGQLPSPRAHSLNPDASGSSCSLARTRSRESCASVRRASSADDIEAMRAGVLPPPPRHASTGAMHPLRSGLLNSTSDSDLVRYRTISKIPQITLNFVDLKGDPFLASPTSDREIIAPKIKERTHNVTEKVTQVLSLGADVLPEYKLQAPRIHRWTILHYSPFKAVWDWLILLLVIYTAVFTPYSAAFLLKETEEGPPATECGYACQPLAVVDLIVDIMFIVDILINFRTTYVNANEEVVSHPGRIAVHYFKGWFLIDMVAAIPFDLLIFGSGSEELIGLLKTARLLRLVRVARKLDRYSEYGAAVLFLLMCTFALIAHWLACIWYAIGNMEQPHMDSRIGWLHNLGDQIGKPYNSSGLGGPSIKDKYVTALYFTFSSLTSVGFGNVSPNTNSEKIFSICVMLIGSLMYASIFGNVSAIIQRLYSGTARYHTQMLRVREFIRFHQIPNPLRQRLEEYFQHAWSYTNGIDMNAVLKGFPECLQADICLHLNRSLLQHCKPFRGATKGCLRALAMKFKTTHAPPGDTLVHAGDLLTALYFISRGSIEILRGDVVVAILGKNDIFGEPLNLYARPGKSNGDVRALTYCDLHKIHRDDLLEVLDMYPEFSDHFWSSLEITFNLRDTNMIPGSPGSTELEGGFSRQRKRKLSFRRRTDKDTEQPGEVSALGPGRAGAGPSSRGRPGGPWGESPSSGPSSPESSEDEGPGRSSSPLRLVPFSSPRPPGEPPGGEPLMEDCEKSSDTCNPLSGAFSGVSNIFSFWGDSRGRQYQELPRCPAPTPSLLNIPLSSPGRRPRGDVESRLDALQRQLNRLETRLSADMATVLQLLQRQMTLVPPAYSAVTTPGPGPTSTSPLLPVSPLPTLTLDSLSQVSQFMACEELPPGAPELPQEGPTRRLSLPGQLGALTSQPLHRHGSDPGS
Endpoint Name: pIC50
Reminder that pIC50 means the negative base-10 logarithm of the concentration expressed in mol/L.

## Input Reported pIC50 for "CC(C)(Cc1ccc2ccccc2c1)NC[C@@H](O)COc1cccc(Cl)c1C#N" : what is it?
## Output 6.71

---

Task for the reader: assign each of the following compounds its reported pIC50.
- System: HEK293
- Protocol: Inhibitory concentration for the inhibition of intracellular [Ca2+] release in HEK cells by using FLIPR technology
- Assay type: functional, cell-based
- Setup Conditions: Homo sapiens
Interpret pIC50 as the negative base-10 log of the concentration measured in mol/L.

## Input Endpoint output: pIC50 of "CC(C)(Cc1ccc2ccccc2c1)NC[C@@H](O)COc1cccc(Cl)c1C#N" . Value?
## Output 7.10

## Input Please give the result for "COc1cccc(CC2CCN(C[C@@H](O)COc3cccc(Cl)c3C#N)CC2)c1" too.
## Output 6.19

## Input Subsequent entry: "N#Cc1c(Cl)cccc1OC[C@H](O)CN1CCC(Cc2ccccc2)CC1"
## Output 5.66

## Input Next: "COc1ccc(C[C@@H]2CCCN2C[C@@H](O)COc2cccc(Cl)c2C#N)cc1"
## Output 6.70

## Input Same thing, different compound: "N#Cc1c(Cl)cccc1OC[C@H](O)CN1CCC[C@H]1Cc1ccccc1"
## Output 6.92

## Input // same read-out, input: "COc1cccc(C[C@@H]2CCCN2C[C@@H](O)COc2cccc(Cl)c2C#N)c1"
## Output 6.89

## Input Check "N#Cc1c(Cl)cccc1OC[C@H](O)CN1CCC(Cc2cc(F)ccc2F)CC1" too.
## Output 5.68

## Input Check "CN(C)c1ccc(C[C@@H]2CCCN2C[C@@H](O)COc2cccc(Cl)c2C#N)cc1" too.
## Output 5.72

## Input What do you have for "N#Cc1c(Cl)cccc1OC[C@H](O)CN1CCC[C@H]1Cc1cccc(F)c1" ?
## Output 6.82

## Input What would you report for "N#Cc1c(Cl)cccc1OC[C@H](O)CN1CC[C@H](F)[C@H]1Cc1ccccc1" ?
## Output 5.55

## Input What do you get for "COc1ccc(C[C@@H]2CCCN2C[C@@H](O)COc2cccc(Cl)c2C#N)cc1OC" ?
## Output 6.39

## Input For "N#Cc1c(Cl)cccc1OC[C@H](O)CN1CC[C@@H](O)[C@H]1Cc1ccccc1" then?
## Output 5.85

## Input Could you do the same for N#Cc1c(Cl)cccc1OC[C@H](O)CN1CCC(Cc2ccccc2)C1 (stereo partly specified) , please?
## Output 5.00
